Tested on: SW-620 colon
Assay: NCI-60 one-dose screen, 48 h (100 = growth as untreated, 0 = no growth, -100 = all killed)
Conditions: 10 µM
About 83,000 compounds went through this panel and 20% of them were active in at least one assay; those are over-represented in the sample as a whole.
Reported Endpoint: growth (%)

Compound	Reported Endpoint	Output Unit	Assay Result
CCOC(=O)C(NC(=O)C(Cl)Cl)C(O)c1ccccc1 (centres undefined)	growth	%	100
Cc1[nH]nc2c1C(c1cnn(C)c1)C(C#N)=C(N)O2 (centres undefined)	growth	%	102
Clc1ccc2c(NCCCNc3nccc(Nc4ccc(Br)cc4)n3)ccnc2c1	growth	%	-74.4
O=C1/C(=C\c2ccc(F)cc2)CN(C(=O)c2ccccc2F)C/C1=C\c1ccc(F)cc1	growth	%	-78.3
Cn1c([N+](=O)[O-])cnc1/C=C1\Oc2cc(Cl)ccc2C1=O	growth	%	-47.3
COc1cc(Cl)cc(-c2nn(-c3cccc(NC(=O)c4ccc(Cl)c(Cl)c4)c3)cc2-c2ccncc2)c1	growth	%	84.2
Cc1cc(C)c2c(n1)sc1c(Nc3ccc(Cl)cc3)ncnc12	growth	%	34
COc1ccc2c(c1)nc(N)c1c3cccnc3cn21	growth	%	20.5
Nc1ccn(C2CC(O)C(CO)O2)c(=O)n1 (centres undefined)	growth	%	113
CC(C)(C)c1ccc(N2CSC(=S)N(c3ccc(C(C)(C)C)cc3)C2)cc1	growth	%	106
CCCCCC(=O)c1ccc(OCCCN2CCN(C(=O)OCC)CC2)cc1	growth	%	93.2
Clc1cc2c(c(CSc3nc4ccccc4n4cccc34)c1)OCOC2	growth	%	94.4
CSC1=NCCCC1	growth	%	114
O=C1OCC2=C1C(c1cccc(Cl)c1)c1cc3c(cc1N2CCO)OCCO3 (centres undefined)	growth	%	18.7
COc1cc(Cc2cc(-c3ccc(Cl)cc3)n[nH]c2=O)ccc1O	growth	%	109
O=C(c1ccc(Cl)cc1Cl)N1CCOCC1	growth	%	102
CC(=O)[C@H]1CC[C@H]2[C@@H]3CCC4=CC(=O)C=C[C@]4(C)[C@H]3CC[C@]12C	growth	%	108
C[C@@H]1C=C2C(=O)O[C@@H]3CC[C@H](C1)[C@]23O	growth	%	48.8
COc1ccc(-c2nc(-c3nc4ccc(Cl)cc4[nH]3)c3ccccn23)cc1	growth	%	75.2
Clc1ccccc1N=Cc1ccc2c(c1)OCO2	growth	%	114
COc1cc(Cl)cc(-c2nn(-c3cccc(NC(=O)Nc4ccc(Cl)c(C(F)(F)F)c4)c3)cc2-c2ccncc2)c1	growth	%	12.7
COc1ccc2c(c1)C(=O)c1c-2c(OCCN(C)C)nc2cc(OC)c(OC)cc12	growth	%	38.6
N#CSCC1CC(O)(c2ccccc2)CC(c2ccc(Cl)cc2)O1 (centres undefined)	growth	%	-53.5
S=C1SCC(c2ccccc2)S1 (centres undefined)	growth	%	111
COC(=O)C(C(C[N+](=O)[O-])c1ccccc1)=P(c1ccccc1)(c1ccccc1)c1ccccc1 (centres undefined)	growth	%	69.8
COc1cc(-c2nc(-c3nnc(-c4ccccc4Cl)o3)c3ccccn23)cc(OC)c1OC	growth	%	104
Cc1cc(C)c(NC(=O)c2sc3nc4c(cc3c2N)C(=O)CCC4)c(C)c1	growth	%	15.6
COc1ccc(-c2nc(-c3nc4cc(Cl)c(Cl)cc4[nH]3)c3ccccn23)cc1	growth	%	79.6
CCN(CC)CCOc1nc2cc(OC)c(OC)cc2c2c1-c1ccc(OC)cc1C2=O	growth	%	45.4
COc1cccc(NC(=O)c2sc3nc4c(cc3c2N)C(O)CCC4)c1 (centres undefined)	growth	%	23.8
COc1ccc(-c2nn(-c3cccc(NC(=O)Nc4cccc(C(F)(F)F)c4)c3)cc2-c2ccncc2)cc1Cl	growth	%	17.4
CSc1nc(=O)n(Cc2ccc(F)cc2)c(=O)n1Cc1ccc(C)cc1	growth	%	115
CCC(=O)N1C/C(=C/c2ccc(Cl)cc2)C(=O)/C(=C/c2ccc(Cl)cc2)C1	growth	%	-63.6
CCOCCOCCOCCOCCOCCOCCOCCOCCOCCO (tested in a mixture with another compound)	growth	%	18.6
CN1CCCNc2c(c(=O)c2=O)NCCCN(C)CCCNc2c(c(=O)c2=O)NCCCN(C)CCCNc2c(c(=O)c2=O)NCCCN(C)CCCNc2c(c(=O)c2=O)NCCCN(C)CCCNc2c(c(=O)c2=O)NCCCN(C)CCCNc2c(c(=O)c2=O)NCCCN(C)CCCNc2c(c(=O)c2=O)NCCC1	growth	%	41
O=c1[nH]c2ccc(Cl)cc2c2ccccc12	growth	%	102
CCCN(CCC)CCC(O)c1cc2c(c3ccccc13)CCCC2 (centres undefined)	growth	%	94.1
COc1ccc2c(c1)O/C(=C\c1ncc([N+](=O)[O-])n1C)C2=O	growth	%	-20.8
O=C(N/N=C/c1ccccc1)C(Oc1ccccc1)c1ccccc1 (centres undefined)	growth	%	96.2
CCCCCCCCCCCCCC[n+]1ccc(C(N)=O)cc1	growth	%	7.11
N#Cc1ncc(Br)c(NC2CCCCCC2)n1	growth	%	113
Cc1ccc(N=Nc2c(N)nc(N)[nH]c2=O)cc1C	growth	%	102
O=C(Nc1ccc(CO)cc1)c1ccccc1Nc1ccnc(C(F)(F)F)c1	growth	%	105
COc1ccc(-c2cc(/C=C3\C(=O)Nc4ccc(Cl)cc43)[nH]n2)cc1OC	growth	%	97.1
